Kindly state inhibition for each of the entries shown.
- assayed.system: Solute carrier family 2, facilitated glucose transporter member 1 (Homo sapiens)
- method.notes: ST_JUDE_LEISH: Cytotoxicity at 2uM final concentration against transgenic Leishmania Mexicana promastigotes LmGLUT1 that are glucose transport deficient and complemented with the human glucose transporter GLUT1. Activity is measured by DNA content using SYBR green in vitro
- Format: functional
Numbers only, in %.

Illustrative cases are given below, each with its answer.
compound	unit	numeric.readout
CCOc1ccc(-c2n[nH]c(C(F)(F)F)c2-c2ccccc2OC)c(O)c1	%	2.44
CCCNC(=O)c1cncc(-c2ccc(CNC(CC)c3ccccc3)cc2)c1 (centres undefined)	%	-0.02
Cc1ccccc1CNc1ccc2nc(N)nc(N)c2c1	%	1.01
COc1cccc2cc(C(=O)N[C@@H](CC(C)C)C(=O)N[C@H](C=NNC(=O)OC(C)(C)C)Cc3ccccc3)oc12	%	7.26
Cc1cccc2nc(-c3ccc(-c4ccc(CN5CCN(CCO)CC5)cc4)cc3)[nH]c12	%	25.5
COc1ccc(NC(=O)Nc2cccc(-c3ccc(-c4nc5cc(C(F)(F)F)ccc5[nH]4)cc3)c2)cc1	%	0.43
CCCCC(=O)Nc1nonc1-c1ccc(OCC)c(OCC)c1	%	-0.29
Cc1cccc2nc(-c3ccc(-c4ccc(CNCC(C)C)cc4)cc3)[nH]c12	%	15.3

For every record below, what is its inhibition?
1. Cc1ccn2c(N(Cc3ccccc3)C(=O)c3ccc(Cl)c(Cl)c3)c(-c3ccccc3)nc2c1
2. CCN(CC)CCN(Cc1ccc(-c2ccc(C(F)(F)F)cc2)cc1)C(=O)Cn1c(CCc2ccc(F)c(F)c2F)nc(=O)c2ccc(F)cc21
3. COc1ccc(-n2cc(C(=O)c3cc(Br)ccc3O)cc(C#N)c2=O)cc1Cl
4. COc1cc(C)nc2ccc(NC(=O)Nc3cccc4ccccc34)cc12

[4.28, 3.42, 3.4, 3.38]

For every record below, what is its inhibition?
1. COc1cc2c(cc1OC)C(C(=O)c1ccccc1)=NCC2
2. CCOC(=O)c1ccc(NC(=O)N[C@@H](Cc2ccccc2)C(=O)NC2CCN(Cc3ccc(O)cc3)C2)cc1 (some centres undefined)

1. 1.66
2. -1.09
